GI50 values for the compounds below.
system: K562 (human chronic myelogenous leukemia) cells; test: Cell Titer Glo 2.0 cell viability assay; format: cell-based; details: Homo sapiens, K562, 72 h, K562 cells, 72 hours, Cell Titer Glo 2.0; read-out: K562 GI50

Example compounds with recorded GI50:
Cc1c(O)c(-c2ncc3c(=O)n([C@@H]4CC[C@H](N)C4)ccc3n2)cc2cn(C)nc12 [Compound 1333]    0.1 to 1 µM
Cc1cn2cc(-c3ccc4c(=O)n(C5CCNCC5)ncc4c3)ncc2n1 [Compound 255]    0.1 to 1 µM
Cc1cn2nc(-c3ccc4c(=O)n([C@@H]5CCNC6(CC6)C5)ccc4n3)cc(C)c2n1 [Compound 1505]    1 to 10 µM
Cc1cn2nc(-c3ccc4c(=O)c(C5CCNCC5)cn(C)c4c3)cc(C)c2n1 [Compound 590]    1 to 10 µM
Cc1cn2cc(-c3ncc4c(=O)n(C5C[C@H](C)N[C@@H](C)C5)ccc4n3)cc(F)c2n1 (stereo partly drawn) [Compound 1482]    < 0.1 µM

Prompt: Please look at this compound and report its GI50: Cc1cn2cc(-c3cc(F)c4c(=O)n(C5CCNCC5(F)F)cnc4c3)cc(F)c2n1 (stereo not drawn) [Compound 339]
Response: > 10 µM

Prompt: Please look at this compound and report its GI50: Cc1cn2nc(-c3ccc4c(=O)n(C56CCC(N)(CC5)C6)ccc4n3)cc(C)c2n1 [Compound 1504]
Response: 0.1 to 1 µM

Prompt: Please look at this compound and report its GI50: Cc1cn2cc(-c3ccc4c(c3)CCN(C3CCNCC3)C4=O)cc(F)c2n1 [Compound 247]
Response: 0.1 to 1 µM

Prompt: Please look at this compound and report its GI50: Cc1cc(-c2ccc3c(=O)n(C4CCNCC4)ncc3c2)cc2cn(C)nc12 [Compound 251]
Response: 1 to 10 µM

Prompt: Please look at this compound and report its GI50: Cc1cn2nc(-c3cc(F)c4c(=O)n(C5CCNC5)cnc4c3)cc(C)c2n1 (stereo not drawn) [Compound 589]
Response: 1 to 10 µM

Prompt: Please look at this compound and report its GI50: Cc1cn2cc(-c3ccc4c(=O)n([C@H]5CCN[C@H](C)C5)cnc4c3)cc(F)c2n1 [Compound 296]
Response: 0.1 to 1 µM

Prompt: Please look at this compound and report its GI50: Cc1cn2cc(-c3ccc4c(=O)n([C@H]5CCCNC5)ccc4c3)cc(F)c2n1 [Compound 404]
Response: 1 to 10 µM

---

tested on: HTT mRNA; assay: RT-qPCR splicing assay, HTT canonical junction (CJ) and alternative junction (AJ) mRNA; type: cell-based, human; settings: Homo sapiens; canonical junction qPCR panel, Table 5; read-out: HTT (decrease in CJ mRNA levels, IC50)
MEASURE NAME: IC50

Cc1c(O)c(-c2nc(C)c3c(=O)n([C@H]4CCNC5(CC5)C4)ccc3n2)cc2cn(C)nc12 [Compound 1514]    > 10 µM

Prompt: Please look at this compound and report its IC50: Cc1cn2cc(-c3ccc4c(=O)n(C5C[C@H](C)N[C@@H](C)C5)ccc4n3)cc(F)c2n1 (stereo partly drawn) [Compound 1502]
Response: 1 to 10 µM

Prompt: Please look at this compound and report its IC50: CN1CCC(n2ncc3nc(-c4cc5cn(C)nc5cc4O)ccc3c2=O)CC1 [Compound 1307]
Response: 1 to 10 µM

---

test system: MYB mRNA; assay: RT-qPCR splicing assay, MYB canonical junction (CJ) and alternative junction (AJ) mRNA; format: cell-based, human; details: Homo sapiens; Table 5 panel; canonical junction qPCR; compound concentration having 50% response in CJ decrease; read-out: MYB IC50 (decrease in CJ mRNA levels)
Structures can show the parent of a compound that is named as a salt.
IC50 values for the molecules below.

Prompt: Please look at this molecule and report its IC50: Cc1cn2cc(-c3cc(F)c4c(=O)n(C5CCNC5)cnc4c3)cc(F)c2n1 (centres unmarked) [Compound 344]
Response: 100 to 1000 nM

Prompt: Please look at this molecule and report its IC50: Cc1cn2cc(-c3ncc4c(=O)n(C5CCNC5)ccc4n3)c(O)c(C)c2n1 (centres unmarked) [Compound 1227]
Response: 1000 to 10000 nM

Prompt: Please look at this molecule and report its IC50: Cn1cc2c(=O)n(-c3ccc4c(=O)n(C5CCNCC5)ccc4c3)ccc2n1 [Compound 530]
Response: > 10000 nM

Prompt: Please look at this molecule and report its IC50: Cc1cn2nc(-c3ccc4c(=O)n(C5CCNC5)ncc4c3)cc(C)c2n1 (centres unmarked) [Compound 264]
Response: 1000 to 10000 nM

Prompt: Please look at this molecule and report its IC50: Cc1cn2cc(-c3cc(F)c4c(=O)n(C5CCNC6(CC6)C5)ccc4c3)ncc2n1 (centres unmarked) [Compound 428]
Response: 100 to 1000 nM

Prompt: Please look at this molecule and report its IC50: Cc1cn2nc(-c3cc(O)c4c(=O)n(C5CCN(C)CC5)ncc4c3)cc(C)c2n1 [Compound 543]
Response: 100 to 1000 nM

Prompt: Please look at this molecule and report its IC50: Cc1cn2nc(-c3ccc4c(c3)CCN(C3CCNCC3)C4=O)cc(C)c2n1 [Compound 185]
Response: 1000 to 10000 nM

Prompt: Please look at this molecule and report its IC50: Cc1cn2cc(-c3ncc4c(=O)n(C5CCNC5)ccc4n3)cc(F)c2n1 (centres unmarked) [Compound 1215]
Response: 100 to 1000 nM

Prompt: Please look at this molecule and report its IC50: Cc1cn2nc(-c3cc(O)c4c(=O)n(C5CCNCC5)ccc4c3)cc(C)c2n1 [Compound 391]
Response: < 100 nM

Prompt: Please look at this molecule and report its IC50: Cc1cn2nc(-c3ccc4c(=O)n(C5CCNCC5)ccc4c3)cc(Oc3ccc(F)cc3)c2n1 [Compound 546, hydrochloride]
Response: < 100 nM

Prompt: Please look at this molecule and report its IC50: Cc1cn2cc(-c3cc(F)c4c(=O)n(C5CCNC5)ccc4c3)cc(C#N)c2n1 (centres unmarked) [Compound 434]
Response: 100 to 1000 nM

Prompt: Please look at this molecule and report its IC50: Cc1c(O)c(-c2ncc3c(=O)n(C4CCNCC4)cc(C)c3n2)cc2cn(C)nc12 [Compound 1191]
Response: < 100 nM

Prompt: Please look at this molecule and report its IC50: Cc1cn2cc(-c3cc(F)c4c(=O)n(C5CCNCC5)cnc4c3)cc(F)c2n1 [Compound 230]
Response: < 100 nM

Prompt: Please look at this molecule and report its IC50: Cc1cn2nc(-c3ccc4c(=O)n(C5CCNC(C)(C)C5)ncc4c3)cc(C)c2n1 (centres unmarked) [Compound 279]
Response: < 100 nM

Prompt: Please look at this molecule and report its IC50: Cc1cn2cc(-c3ccc4c(=O)n(C5CCN(C)CC5)cnc4c3)ncc2n1 [Compound 308]
Response: 1000 to 10000 nM

Prompt: Please look at this molecule and report its IC50: Cc1cn2nc(-c3ccc4c(=O)n([C@@H]5CCNC6(CC6)C5)ncc4c3)cc(C)c2n1 (stereo in doubt) [Compound 368]
Response: 100 to 1000 nM

Prompt: Please look at this molecule and report its IC50: Cc1cn2cc(-c3cc(F)c4c(=O)n(C5CCOC5)cnc4c3)cc(C#N)c2n1 (stereo in doubt) [Compound 499]
Response: 100 to 1000 nM

Prompt: Please look at this molecule and report its IC50: Cn1cc2nc(-c3ccc4c(=O)n(C5CCNC6(CC6)C5)ncc4c3)ccc2n1 (centres unmarked) [Compound 511]
Response: 100 to 1000 nM

Prompt: Please look at this molecule and report its IC50: Cn1ccc2nn(-c3ccc4c(=O)n(C5CCNCC5)ccc4c3)cc2c1=O [Compound 522]
Response: > 10000 nM

---

test system: MYB mRNA; assay: RT-qPCR splicing assay, MYB canonical junction (CJ) and alternative junction (AJ) mRNA; type: cell-based, human; details: Homo sapiens; decrease in MYB canonical junction (CJ) mRNA, RT-qPCR; read-out: MYB CJ IC50
MEASURE NAME: IC50

Cn1cc2cc(-n3cnc4ccc(N5CCNCC5)cc4c3=O)ccc2n1 [Compound 2155]    > 10000 nM
Cc1cc(-c2ccc3nc(N4CCNCC4)[nH]c(=O)c3c2)cc2cn(C)nc12 [Compound 166]    1000 to 10000 nM
COc1cc(-c2cc(C)c3nc(C)cn3n2)cc2ccn(C3CCNCC3)c(=O)c12 [Compound 399]    100 to 1000 nM
Cc1c(O)c(-c2ncc3c(=O)n([C@H]4CC[C@@H](N(C)C)CC4)ccc3n2)cc2cn(C)nc12 [Compound 1460]    100 to 1000 nM
Cc1cc(-c2ccc3c(=O)[nH]c(N4CCN(C)CC4)nc3c2)cc2cn(C)nc12 [Compound 2212]    1000 to 10000 nM

Prompt: Please look at this compound and report its IC50: CC(=O)Nc1cc(-c2cc(C)c3nc(C)cn3n2)cc2ccn([C@@H]3CCNC3)c(=O)c12 [Compound 650]
Response: > 10000 nM

meta.source: patent US20250332173A1
